conditions: 333.15 K; 20000 kPa; Liquid; Vibrating tube method
ATTRIBUTE_MEASURED: mass density (kg/m3)

compound=CCC[n+]1ccccc1Oc1ccc(Cl)c[n+]1CCOS(=O)(=O)[O-].F[B-](F)(F)F experimental_result=1237.65
compound="CCCC[n+]1ccccc1.O=S(=O)([O-])C(F)(F)F [1-butylpyridinium trifluoromethanesulfonate]" experimental_result=1300.4
compound="CCCC[n+]1cccc(C)c1.N#C[N-]C#N [1-butyl-3-methylpyridinium dicyanamide]" experimental_result=1036.45
compound="CCCCCCCC[n+]1cccc(C)c1.F[B-](F)(F)F [N-octyl-3-methylpyridinium tetrafluoroborate]" experimental_result=1083.46
compound="CCCC[n+]1ccccc1.F[B-](F)(F)F [1-butylpyridinium tetrafluoroborate]" experimental_result=1199.91

###

details: 323.15 K; 45000 kPa; Liquid; Vibrating tube method
ATTRIBUTE_MEASURED: mass density (kg/m3)

compound="CCCC[n+]1ccccc1.F[B-](F)(F)F [1-butylpyridinium tetrafluoroborate]" experimental_result=1217
compound=CCC[n+]1ccccc1Oc1ccc(Cl)c[n+]1CCOS(=O)(=O)[O-].F[B-](F)(F)F experimental_result=1254.69
compound="CCCC[n+]1ccccc1.O=S(=O)([O-])C(F)(F)F [1-butylpyridinium trifluoromethanesulfonate]" experimental_result=1321.03
compound="CCCCCCCC[n+]1cccc(C)c1.F[B-](F)(F)F [N-octyl-3-methylpyridinium tetrafluoroborate]" experimental_result=1101.43
compound="CCCC[n+]1cccc(C)c1.N#C[N-]C#N [1-butyl-3-methylpyridinium dicyanamide]" experimental_result=1051.45

###

conditions: 323.15 K; 25000 kPa; Liquid; Vibrating tube method
ATTRIBUTE_MEASURED: mass density (kg/m3)

compound="CCCC[n+]1cccc(C)c1.N#C[N-]C#N [1-butyl-3-methylpyridinium dicyanamide]" experimental_result=1044.3
compound="CCCCCCCC[n+]1cccc(C)c1.F[B-](F)(F)F [N-octyl-3-methylpyridinium tetrafluoroborate]" experimental_result=1092.26
compound=CCC[n+]1ccccc1Oc1ccc(Cl)c[n+]1CCOS(=O)(=O)[O-].F[B-](F)(F)F experimental_result=1246.62
compound="CCCC[n+]1ccccc1.O=S(=O)([O-])C(F)(F)F [1-butylpyridinium trifluoromethanesulfonate]" experimental_result=1310.7
compound="CCCC[n+]1ccccc1.F[B-](F)(F)F [1-butylpyridinium tetrafluoroborate]" experimental_result=1208.68

###

conditions: 298.15 K; 55000 kPa; Liquid; Vibrating tube method
ATTRIBUTE_MEASURED: mass density (kg/m3)

compound="CCCC[n+]1ccccc1.F[B-](F)(F)F [1-butylpyridinium tetrafluoroborate]" attribute_measured="mass density" experimental_result=1237.1
compound="CCCCCCCC[n+]1cccc(C)c1.F[B-](F)(F)F [N-octyl-3-methylpyridinium tetrafluoroborate]" attribute_measured="mass density" experimental_result=1120.63
compound=CCC[n+]1ccccc1Oc1ccc(Cl)c[n+]1CCOS(=O)(=O)[O-].F[B-](F)(F)F attribute_measured="mass density" experimental_result=1275.21
compound="CCCC[n+]1cccc(C)c1.N#C[N-]C#N [1-butyl-3-methylpyridinium dicyanamide]" attribute_measured="mass density" experimental_result=1069.04

###

conditions: 313.15 K; 15000 kPa; Liquid; Vibrating tube method
ATTRIBUTE_MEASURED: mass density (kg/m3)

compound="CCCC[n+]1ccccc1.F[B-](F)(F)F [1-butylpyridinium tetrafluoroborate]" attribute_measured="mass density" experimental_result=1210.88
compound="CCCC[n+]1ccccc1.O=S(=O)([O-])C(F)(F)F [1-butylpyridinium trifluoromethanesulfonate]" attribute_measured="mass density" experimental_result=1312.65
compound="CCCCCCCC[n+]1cccc(C)c1.F[B-](F)(F)F [N-octyl-3-methylpyridinium tetrafluoroborate]" attribute_measured="mass density" experimental_result=1093.69
compound="CCCC[n+]1cccc(C)c1.N#C[N-]C#N [1-butyl-3-methylpyridinium dicyanamide]" attribute_measured="mass density" experimental_result=1046.25
compound=CCC[n+]1ccccc1Oc1ccc(Cl)c[n+]1CCOS(=O)(=O)[O-].F[B-](F)(F)F attribute_measured="mass density" experimental_result=1249.22

###

settings: 288.15 K; 50000 kPa; Liquid; Vibrating tube method
ATTRIBUTE_MEASURED: mass density (kg/m3)

compound="CCCC[n+]1ccccc1.F[B-](F)(F)F [1-butylpyridinium tetrafluoroborate]" attribute_measured="mass density" experimental_result=1241.78
compound=CCC[n+]1ccccc1Oc1ccc(Cl)c[n+]1CCOS(=O)(=O)[O-].F[B-](F)(F)F attribute_measured="mass density" experimental_result=1280.38
compound="CCCC[n+]1cccc(C)c1.N#C[N-]C#N [1-butyl-3-methylpyridinium dicyanamide]" attribute_measured="mass density" experimental_result=1073.24
compound="CCCCCCCC[n+]1cccc(C)c1.F[B-](F)(F)F [N-octyl-3-methylpyridinium tetrafluoroborate]" attribute_measured="mass density" experimental_result=1124.72

###

conditions: 333.15 K; 10000 kPa; Liquid; Vibrating tube method
ATTRIBUTE_MEASURED: mass density (kg/m3)

molecule="CCCCCCCC[n+]1cccc(C)c1.F[B-](F)(F)F [N-octyl-3-methylpyridinium tetrafluoroborate]" experimental_result=1078.24
molecule=CCC[n+]1ccccc1Oc1ccc(Cl)c[n+]1CCOS(=O)(=O)[O-].F[B-](F)(F)F experimental_result=1232.96
molecule="CCCC[n+]1ccccc1.O=S(=O)([O-])C(F)(F)F [1-butylpyridinium trifluoromethanesulfonate]" experimental_result=1294.46
molecule="CCCC[n+]1cccc(C)c1.N#C[N-]C#N [1-butyl-3-methylpyridinium dicyanamide]" experimental_result=1032.34
molecule="CCCC[n+]1ccccc1.F[B-](F)(F)F [1-butylpyridinium tetrafluoroborate]" experimental_result=1195

###

settings: 293.15 K; 40000 kPa; Liquid; Vibrating tube method
ATTRIBUTE_MEASURED: mass density (kg/m3)

compound="CCCC[n+]1ccccc1.F[B-](F)(F)F [1-butylpyridinium tetrafluoroborate]" unit_spec=kg/m3 experimental_result=1234.73
compound=CCC[n+]1ccccc1Oc1ccc(Cl)c[n+]1CCOS(=O)(=O)[O-].F[B-](F)(F)F unit_spec=kg/m3 experimental_result=1273.23
compound="CCCC[n+]1cccc(C)c1.N#C[N-]C#N [1-butyl-3-methylpyridinium dicyanamide]" unit_spec=kg/m3 experimental_result=1066.96
compound="CCCCCCCC[n+]1cccc(C)c1.F[B-](F)(F)F [N-octyl-3-methylpyridinium tetrafluoroborate]" unit_spec=kg/m3 experimental_result=1117.82

###

settings: 333.15 K; 55000 kPa; Liquid; Vibrating tube method
ATTRIBUTE_MEASURED: mass density (kg/m3)

molecule="CCCC[n+]1cccc(C)c1.N#C[N-]C#N [1-butyl-3-methylpyridinium dicyanamide]" attribute_measured="mass density" unit_spec=kg/m3 experimental_result=1049.26
molecule="CCCCCCCC[n+]1cccc(C)c1.F[B-](F)(F)F [N-octyl-3-methylpyridinium tetrafluoroborate]" attribute_measured="mass density" unit_spec=kg/m3 experimental_result=1099.8
molecule="CCCC[n+]1ccccc1.F[B-](F)(F)F [1-butylpyridinium tetrafluoroborate]" attribute_measured="mass density" unit_spec=kg/m3 experimental_result=1214.74
molecule="CCCC[n+]1ccccc1.O=S(=O)([O-])C(F)(F)F [1-butylpyridinium trifluoromethanesulfonate]" attribute_measured="mass density" unit_spec=kg/m3 experimental_result=1318.77
molecule=CCC[n+]1ccccc1Oc1ccc(Cl)c[n+]1CCOS(=O)(=O)[O-].F[B-](F)(F)F attribute_measured="mass density" unit_spec=kg/m3 experimental_result=1252

###

conditions: 298.15 K; 10000 kPa; Liquid; Vibrating tube method
ATTRIBUTE_MEASURED: mass density (kg/m3)

compound=CCC[n+]1ccccc1Oc1ccc(Cl)c[n+]1CCOS(=O)(=O)[O-].F[B-](F)(F)F experimental_result=1257.73
compound="CCCC[n+]1ccccc1.F[B-](F)(F)F [1-butylpyridinium tetrafluoroborate]" experimental_result=1218.93
compound="CCCC[n+]1cccc(C)c1.N#C[N-]C#N [1-butyl-3-methylpyridinium dicyanamide]" experimental_result=1053.24
compound="CCCCCCCC[n+]1cccc(C)c1.F[B-](F)(F)F [N-octyl-3-methylpyridinium tetrafluoroborate]" experimental_result=1101.04

###

conditions: 288.15 K; 45000 kPa; Liquid; Vibrating tube method
ATTRIBUTE_MEASURED: mass density (kg/m3)

compound="CCCC[n+]1ccccc1.F[B-](F)(F)F [1-butylpyridinium tetrafluoroborate]" unit_spec=kg/m3 experimental_result=1240.13
compound="CCCC[n+]1cccc(C)c1.N#C[N-]C#N [1-butyl-3-methylpyridinium dicyanamide]" unit_spec=kg/m3 experimental_result=1071.67
compound="CCCCCCCC[n+]1cccc(C)c1.F[B-](F)(F)F [N-octyl-3-methylpyridinium tetrafluoroborate]" unit_spec=kg/m3 experimental_result=1122.74
compound=CCC[n+]1ccccc1Oc1ccc(Cl)c[n+]1CCOS(=O)(=O)[O-].F[B-](F)(F)F unit_spec=kg/m3 experimental_result=1278.72
